# Assay Explanation: yeast display, Sf9 membrane polyspecificity reagent, FACS + sequencing; frameworks hold sequencing errors

Seq	polyreactivity (PSR sort gate)
QVQLVESGGGLVQAGVSLRLSCAASGRIFNGNAMGWYRQAPGIEWELVATITRGGGSTYYADSVKGRFTISRDNAKKTVYLQMNSLKPEDTAVYSCNVPPPTQVRYRSDHWGQGTQVTVSS	low polyreactivity
QVQLVESGGGLVLAGGSLRLSCAASGNILIGNVMGWYRPAPGKERELVAAITSGGDTYYADSVKGRFTISRDNAKNTVYLQMNSLNPEDTAVYYCAADRPGQPKYEYWRQGTQVTVSS	low polyreactivity
QVQLVESGAGLVQAGGSLRLSCASSGRTCDFYAMGWYRQAPGKERELVAAISSSCGSTYYADSVKGRFTISRDNAKNTVYLQMNSLKPEDTAVYYCAKDGRVHSPYDYWGQGTQVTVSS	low polyreactivity
